- system.name: GPR40 (Homo sapiens)
- Sequence (O14842 whole entry): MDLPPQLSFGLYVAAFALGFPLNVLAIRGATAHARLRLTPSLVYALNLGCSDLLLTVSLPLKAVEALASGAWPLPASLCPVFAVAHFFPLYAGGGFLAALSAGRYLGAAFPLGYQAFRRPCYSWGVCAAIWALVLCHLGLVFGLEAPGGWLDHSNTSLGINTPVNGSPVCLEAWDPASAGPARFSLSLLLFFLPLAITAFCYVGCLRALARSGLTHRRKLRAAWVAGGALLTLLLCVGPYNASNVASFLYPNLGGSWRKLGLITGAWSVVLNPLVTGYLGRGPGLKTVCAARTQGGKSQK
- test.description: Cell-based aequorin assay (CHO cells stably expressing GPR40 and aequorin)
- Parameters: expressed in transfected cells; host or cells: CHO cells stably transfected with GPR40 and aequorin
- condition.parameters: activation of human GPR40, CHO cells, 0.01% HSA
recorded.metric: EC50

Below, 3 molecules whose answers are already recorded.
INSERT INTO results (molecule, meas_value) VALUES
  ('CCC(CC(=O)O)c1cc(OCc2ccc(-c3cc(OC)ccc3F)c(C3CCCC3(C)C)c2)ccc1F (single isomer, unassigned)', '100 to 1000 nM'),
  ('COc1ccc(F)c(-c2ccc(COc3cccc([C@H](C)CC(=O)O)c3)cc2OC2CCCC2)c1 (single isomer, unassigned)', '100 to 1000 nM'),
  ('COc1ccc(F)c(-c2ccc(COc3cccc([C@H](CC(=O)O)C4CC4)c3)cc2[C@@H]2CCCC2(C)C)c1 (single isomer, unassigned)', '100 to 1000 nM');

Sure, the documented EC50 for COc1ccc(F)c(-c2ccc(COc3cccc(C(CC(=O)O)CC4CC4)c3)cc2N2CCCCCC2)c1 (single isomer, unassigned) is 100 to 1000 nM

Sure, the documented EC50 for COc1ccc(F)c(-c2ccc(COc3cccc(C(CC(=O)O)C4CC4)c3)cc2C2CCCCCC2)c1 (single isomer, unassigned) is 100 to 1000 nM

Sure, the documented EC50 for COc1ccc(F)c(-c2c(F)cc(COc3cccc([C@@H](CC(=O)O)C4CC4)c3F)cc2[C@H]2CCCC2(C)C)c1 (single isomer, unassigned) is 100 to 1000 nM

Sure, the documented EC50 for COc1cccc(-c2ccc(COc3cccc(C(CC(=O)O)CC4CC4)c3)cc2C2=CCCC2(C)C)c1 (single isomer, unassigned) is 100 to 1000 nM

Sure, the documented EC50 for COc1ccc(F)c(-c2ccc(COc3cccc(C(CC(=O)O)CC4CC4)c3)cc2C2=CCCC2(C)C)c1 (single isomer, unassigned) is 100 to 1000 nM
